target: Tau-tubulin kinase 1 (Homo sapiens)
Sequence (Q5TCY1 whole entry): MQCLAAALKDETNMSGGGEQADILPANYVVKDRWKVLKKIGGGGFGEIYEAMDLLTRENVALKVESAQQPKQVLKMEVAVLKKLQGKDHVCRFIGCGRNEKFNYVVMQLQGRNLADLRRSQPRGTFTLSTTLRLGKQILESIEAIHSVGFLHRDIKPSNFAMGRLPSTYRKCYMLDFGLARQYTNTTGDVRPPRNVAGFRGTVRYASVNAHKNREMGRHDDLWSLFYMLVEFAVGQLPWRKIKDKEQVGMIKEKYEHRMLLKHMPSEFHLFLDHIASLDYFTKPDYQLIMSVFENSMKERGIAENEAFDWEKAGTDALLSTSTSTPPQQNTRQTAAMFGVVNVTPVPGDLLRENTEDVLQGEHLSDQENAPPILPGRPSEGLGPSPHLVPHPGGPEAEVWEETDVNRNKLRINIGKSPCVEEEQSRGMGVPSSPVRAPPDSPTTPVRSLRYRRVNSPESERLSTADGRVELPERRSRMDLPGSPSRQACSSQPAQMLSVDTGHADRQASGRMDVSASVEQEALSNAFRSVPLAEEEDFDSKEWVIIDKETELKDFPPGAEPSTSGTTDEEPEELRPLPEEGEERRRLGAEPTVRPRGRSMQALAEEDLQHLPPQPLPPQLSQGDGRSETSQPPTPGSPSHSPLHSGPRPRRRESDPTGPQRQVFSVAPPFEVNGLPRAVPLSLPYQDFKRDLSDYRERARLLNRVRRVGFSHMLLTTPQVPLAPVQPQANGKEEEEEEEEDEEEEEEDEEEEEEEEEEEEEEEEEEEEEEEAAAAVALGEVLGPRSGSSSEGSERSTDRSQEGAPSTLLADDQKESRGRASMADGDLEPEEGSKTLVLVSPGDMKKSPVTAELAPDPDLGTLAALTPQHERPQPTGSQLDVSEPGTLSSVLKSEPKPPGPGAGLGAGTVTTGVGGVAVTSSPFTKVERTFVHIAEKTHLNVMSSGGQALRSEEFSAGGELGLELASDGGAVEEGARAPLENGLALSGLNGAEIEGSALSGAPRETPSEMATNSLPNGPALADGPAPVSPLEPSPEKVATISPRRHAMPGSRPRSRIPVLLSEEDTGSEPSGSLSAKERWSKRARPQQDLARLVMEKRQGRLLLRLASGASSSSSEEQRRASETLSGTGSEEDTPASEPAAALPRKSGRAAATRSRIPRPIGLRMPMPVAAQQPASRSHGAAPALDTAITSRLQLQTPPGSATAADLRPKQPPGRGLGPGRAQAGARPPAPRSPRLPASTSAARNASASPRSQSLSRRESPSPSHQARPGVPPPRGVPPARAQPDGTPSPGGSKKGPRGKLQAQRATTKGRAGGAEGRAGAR
pKd: −log10 of the molar value.
reportedEndpoint: pKd

1) COC(=O)c1cc(Nc2ncnc3[nH]ccc23)ccc1Br: 5.39
